Assay: protein stability index of a GFP-peptide fusion (yeast GPS) (PSI 1-4); higher = more stable; sorted into four equal gates, so the index is relative within each strain
Details: pdr5∆
Measured protein stability index, listed per entry.
observationType: protein stability index

• QISLNRLIDSMKQYSYL [RRI1] = 2.29
• VPPIASPQQFLRAHTDD [PRE2] = 2.72
• LQQQTPVTIWLFEQIGI [SME1] = 1.87
• WREQLRNRDIALFQPPN [ROX3] = 2.95
• DGGKTLRACAANVDQIS [YMR129W/POM152] = 2.94
• SLQYINIRGNTIRQIIL [SMD1] = 3.26
• SRKETSRTATWLKNKFA [BRR2] = 1.29
• KEEVCQGMEGTVDLALF [YMR129W/POM152] = 3.44
• KQFDSIFNSNKAKIIPG [SIR4] = 2.33
• SECIVSIKSKVVDHHVE [RRP42] = 3.08
• ISNINIPISSETTIDDL [SMC1] = 2.69
• NLLSKRNQEKKMEKKKS [SNM1] = 3.38
• KLLNDLALENGEITKTE [NUT1] = 3.09
• ELIKNYITARIMAKRPF [FAS1] = 2.58

====

Test: protein stability index of a GFP-peptide fusion (yeast GPS) (PSI 1-4); higher = more stable; sorted into four equal gates, so the index is relative within each strain
Conditions: doa10∆
Cut-off 2 on protein stability index, inclusive. At or above means Yes; below means No.

• LPYLSDTCAVSFDAVSD [YJR042W/NUP85] = Yes
• ATLPYIKQDIPIVIIFR [RPB2] = No
• AVIESVVNQPTGKIVDV [FAS1] = Yes
• NLNELESQLQMDRTSLR [SMC3] = Yes
• DLSGADIQAMCTEAGLL [RPT2] = Yes
• VKKVQLGKKGVPYVVTH [RPS4A] = No
• YILRYLHANGASFFFMV [COB] = No
• LTGTVVSTKMHRTIVIR [RPS11A] = Yes
• KEAALKTMIKTIEKDKM [SMC2] = Yes
• IRGSDQAIPKFQMNCYA [RPN2] = No
• SVKGKVVIDAFRLIDTG [RPN11] = No
• TKIPQIGDKFASRHGQK [RPB2] = No
• QIAAQSPVELSRMFEEV [SMC1] = Yes
• DNNNGDDDDEDDDEIVM [SKP1] = Yes
• DLASSKEVLAKIVDLLA [RPN5] = Yes

====

Assay: protein stability index of a GFP-peptide fusion (yeast GPS) (PSI 1-4); higher = more stable; sorted into four equal gates, so the index is relative within each strain
Settings: ubr1∆
observationType: protein stability index

• YLAENPDPNFENSIGYN [PRP8] = 3.19
• VRKELRGRAVVLMGKNT [RPP0] = 2.08
• RQPSLHRLSILSHYAKI [RPO31] = 2.13
• ASGLLRAYLSHSNRCIV [CSN12] = 1.25
• QIILDRFAPDNQVTDSS [SIR3] = 3.11
• AAKIIYLAHEDNKEKDF [PRE10] = 3.01
• VYYSKRGFKVGLVCADT [SRP54] = 2.5
• LPYLSDTCAVSFDAVSD [YJR042W/NUP85] = 2.87
• DYVASLNELYQTQQDLP [NSL1] = 3.06
• PSHYPHPYEYEIDHQEY [RRP6] = 2.27
• TFIYFAYFLIIVPVIST [COB] = 1.1
• EEKLKANKEKKKAEKAA [RPL24A] = 3.48
• NYQYKIQELRKLLKSLL [MED7] = 1.81
• TSFDIKREGRNELQEER [POP6] = 3.27
• KKIVDDTIMENPEPNKK [IRR1] = 2.59

====

Test: protein stability index of a GFP-peptide fusion (yeast GPS) (PSI 1-4); higher = more stable; sorted into four equal gates, so the index is relative within each strain
Settings: san1∆
# Lookup of reported protein stability index keyed by entry
observationType: protein stability index

- DISGTMSGGGNHVAKGL [SMC4]: 3.25
- GDTVRILDTSQSESRQK [SNU114]: 2.77
- VYFGDENKVMLPRCSKE [RRI2]: 3.11
- NIWGTVRTNRFDIIEES [ECM29]: 2.54
- SVLDEQEQYQTNTFEGS [SNU114]: 3.26
- LYQLVDIRDSSCQGNVI [YMR129W/POM152]: 2.86
- NPEPNKKNIQKAKSNQT [IRR1]: 2.56
- PPGLDALVKPETQFKLS [CDC53]: 3.07
- PSHEKLKESYSQKHNGR [CDC53]: 2.94
- DRFIELISDQLLEFFEL [YML103C/NUP188]: 2.4
- IPNQEVLQYSDWESDLH [YDL116W/NUP84]: 2.43
- LRRLEILVPDLYHLVIM [ECM29]: 1.46
- LESIQKTKEAVAALKAV [RPL4A]: 2.82
- RAAKLAAPENEKPAPVR [RPS15]: 2.89

====

Assay: protein stability index of a GFP-peptide fusion (yeast GPS) (PSI 1-4); higher = more stable; sorted into four equal gates, so the index is relative within each strain
Conditions: san1∆
observationType: protein stability index

• ETDDNIETVMTQEQFVK [SRB4] = 2.6
• NRRWTQRRGPLVVYAED [RPL4A] = 2.12
• EKSGISKMSDESFAELM [RPC17] = 3.27
• GGSGNGDDVVNDVQGID [RPP1] = 3.27
• SIDCLLILILVISFGQP [SWI1] = 1.52
• NVGTNTYRLGEWSKISV [POP1] = 2.69
• IKEIINASKVISTPIIN [RPO31] = 1.03
• QAGVTKASVTIVFDNTD [SMC2] = 2.73
• IDWASPEYGRIIASASY [YGL100W/SEH1] = 3.09
• KTIVTGGNGPEDFQQHE [RPO26] = 3.32
• LGHTKAALGEVASMELK [SIR2] = 3.23
• FPRTRFEAQIDSVEFIF [RPN10] = 2.62
• IRNVLVTVDQYVNVAIS [SSN2] = 1.29
• KILSPTMYMEVYTAIYN [CDC53] = 1.63
• SKLGKNLQTVHFGHCFN [GRR1] = 2.68
• VNNGNIPSQRGTSTTHG [SIR3] = 2.78
• IELKTDWVRFLALALGI [RPN1] = 1.41
• KITIGIQRTTESLILKW [RGR1] = 1.49
• KHSVTEYIFEAHEIIKR [CDC53] = 2.68
• EEIEPKLEKLRNEKRMF [SMC2] = 3.02
• TLDKPNAEATKEEFSSA [CSE2] = 3.23
• GAISAVAATNTPIIFIG [SRP54] = 2.69
• KEFDETIFNLPKNKLVP [FAS1] = 3.59
• MTLNRKCVVIHNGSHRT [ARP7] = 2.54
• SRTLILSILNEIKKVTQ [SIN4] = 2.27
• LYENIASSPIILEEGSS [RPN10] = 2.35
• LILRDFLNNGEVDSASD [RPN3] = 2.63
• LNVTPSKRPQLGEIPNP [SIR4] = 2.66
• QDRLSDLIHKSEAFPSL [SMC4] = 3.07
• ETRAELSQLCAVPLQIV [RPO21] = 2.24
• VVVAETSPEKKDGGDKP [YAR002W/NUP60] = 2.72
• SEISSLKGKINNEMKSL [SMC1] = 2.65
• GTAIGAIGAQSIGEPGT [RPO31] = 2.61
• SSSKQQSRLFINELVLE [SMC4] = 2.58
• TVNHSEKFPNDVKLLNP [RPP1] = 3.08
• KEQTIQLPSKFTCSCNS [RPN14] = 1.96
• SLLLSSVKESTGMSSMS [SRB4] = 1.57
• GSFKYITARSAFVEFGA [SWP82] = 2.96
• KGLETIDNGAESSENEA [RPC53] = 3.14
• NSAIANEQEEKSEEVKA [RPC37] = 2.61
• TPSNIRSLCEVLVYDDK [RPC34] = 1.26
• AALGEVASMELKPTNDM [SIR2] = 3.52
• ISSLIGGFEYFLQPLLL [NUT1] = 1.33
• ADESKMAKLNECPLDPG [RET1] = 2.85
• QSLGLDDLQKFNGIENQ [ISW2] = 2.44
• ILSLEQSSRVVSLSQLL [YCS4] = 2.12
• LIYGISDEERDDEDDEH [AAR2] = 3.52
• LSILKGDYSQATVLSRK [RPN5] = 3.03
• FTNLGIIVQYLTKFRQK [RGR1] = 2.35
• ILRMGAFRTIESKSDDN [RRI1] = 2.92
• PQQPMVKTKTIELIDYD [RET1] = 2.94
• FDDNDSGNNYNDINISS [MED2] = 3.05
• FMRQNLEWNMANLLFKK [RPC82] = 2.49
• ALPDVVVKGLPDISRAV [RPO31] = 2.86
• VVFRDPYKYRLREEIFI [RPL2A] = 2.01
• KDSVTECSKDMKEDGLS [SIR4] = 3.23
• DWEDEEKYEDEDEEKIL [DSN1] = 3.26
• NKLGNKRLTEDERIEKE [CDC53] = 2.31
• IWDSQKFFIMIVKGNII [POP4] = 1.38
• GSVSEETELFEPGVLNT [ECM29] = 3.07
• EVYNVIASDGSYVNYRH [RPO21] = 2.88
